# assay_target: hAT1R (Homo sapiens, UniProt P30556)
# Sequence (P30556 whole entry): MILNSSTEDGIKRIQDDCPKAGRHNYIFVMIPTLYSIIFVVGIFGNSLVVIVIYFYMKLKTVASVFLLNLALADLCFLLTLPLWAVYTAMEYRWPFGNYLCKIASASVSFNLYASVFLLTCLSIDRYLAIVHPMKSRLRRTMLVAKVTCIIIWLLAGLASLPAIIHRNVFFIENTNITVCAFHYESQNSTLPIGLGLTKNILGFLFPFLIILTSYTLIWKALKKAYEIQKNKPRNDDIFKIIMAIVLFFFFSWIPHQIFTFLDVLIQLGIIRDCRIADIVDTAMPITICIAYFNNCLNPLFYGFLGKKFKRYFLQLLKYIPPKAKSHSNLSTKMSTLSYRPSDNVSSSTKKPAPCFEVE
# test_name: BRET β-arrestin2 biosensor assay, higher receptor expression (hAT1R 5 ng/well), HEK293 cells
# Assay type: cell-based
Consider the reported BRET β-Arrestin2 High AT1R Expression Ymax (%) of an entry and match it to a band in I = under 80%, II = from 80% up to 90%, III = 90% and over

Here are 10 molecules together with their reported answers.
>>> df
                               entry_smiles  label_class
0  CCCCc1ncc(C(=O)N2CCCC2)n1Cc1ccc(-c2cc(-c3ccccc3)ccc2-c2nn[nH]n2)cc1            I
1  O=C(O)c1cccc2nc(O)n(Cc3ccc(-c4cc(-c5ccccc5)ccc4-c4nn[nH]n4)cc3)c12            I
2  CCc1nc2c(C)cc(C)nc2n1Cc1ccc(-c2cc(-c3cn(Cc4ccccc4)nn3)ccc2-c2nnn[nH]2)cc1            I
3  CCCCC(=O)N(Cc1ccc(-c2cc(-c3cccc(C)n3)ccc2-c2nn[nH]n2)cc1)[C@H](C(=O)O)C(C)C            I
4  CCCCC1=NC2(CCCC2)C(=O)N1Cc1ccc(-c2cc(-c3ccccc3)ccc2-c2nn[nH]n2)cc1           II
5  CCCCC1=NC2(CCCC2)C(=O)N1Cc1ccc(-c2cc(-c3ccc(OC(F)(F)F)cc3)ccc2-c2nn[nH]n2)cc1            I
6  CCc1nc2c(C)cc(C)nc2n1Cc1ccc(-c2cc(-c3ccccc3OC(F)(F)F)ccc2-c2nn[nH]n2)cc1           II
7  CCCc1cn(-c2ccc(-c3nnn[nH]3)c(-c3ccc(Cn4c(CC)nc5c(C)cc(C)nc54)cc3)c2)nn1          III
8  CCc1nc2c(C)cc(C)nc2n1Cc1ncc(-c2cc(-c3cccc(C)c3)ccc2C(=O)O)cn1          III
9  CCc1nc2c(C)cc(C)nc2n1Cc1ccc(-c2cc(-c3cccc(C)c3)ccc2-c2nn[nH]n2)cc1          III

Note: place this molecule into its band. Item: "CCCCC1=NC2(CCCC2)C(=O)N1Cc1ccc(-c2cc(-c3ccccc3)ccc2-c2noc(=O)[nH]2)cc1"
III

Note: place this molecule into its band. Item: "CCCCc1ncc(C(=O)N[C@@H](CC)C2CC2)n1Cc1ccc(-c2cc(-c3ccccc3)ccc2-c2nn[nH]n2)cc1"
I

Note: place this molecule into its band. Item: "CCc1nc2c(C)cc(C)nc2n1Cc1ccc(-c2cc(-c3cccc(OC)n3)ccc2-c2nn[nH]n2)cc1"
II

Note: place this molecule into its band. Item: "CCCCc1nc(Cl)c(C(=O)O)n1Cc1ccc(-c2cc(N3CCc4ccccc43)ccc2-c2noc(=O)[nH]2)cc1"
III

Note: place this molecule into its band. Item: "CCc1nc2c(C)cc(C)nc2n1Cc1ccc(-c2cc(-c3cccs3)ccc2-c2nn[nH]n2)cc1"
II

Note: place this molecule into its band. Item: "CCc1nc2c(C)cc(C)nc2n1Cc1ccc(-c2cc(-c3cccnc3OC)ccc2-c2nn[nH]n2)cc1"
I

Note: place this molecule into its band. Item: "CCCCc1ncc(C(=O)Nc2ccncc2)n1Cc1ccc(-c2cc(-c3ccccc3)ccc2-c2nn[nH]n2)cc1"
I

Note: place this molecule into its band. Item: "CCc1nc2c(C)cc(C)nc2n1Cc1ccc(-c2cc(-c3ccccc3C)ccc2-c2nn[nH]n2)cc1"
I

Note: place this molecule into its band. Item: "CCOc1nc2cccc(C(=O)O)c2n1Cc1ccc(-c2cc(-c3cccnc3OC)ccc2C(=O)O)cc1"
III

Note: place this molecule into its band. Item: "CCCCC(=O)N(Cc1ccc(-c2cc(Oc3cccc(OC(F)(F)F)c3)ccc2-c2nn[nH]n2)cc1)C1(C(=O)O)CCCCC1"
I
